Data credit: patent US7964724B2

# pIC50 per record follows
# ASSAYED SYSTEM: interaction between p53 and MDM2 proteins (recombinant GST-tagged MDM2 / biotinylated p53-peptide) (Homo sapiens)
# Sequence (Q00987 whole entry): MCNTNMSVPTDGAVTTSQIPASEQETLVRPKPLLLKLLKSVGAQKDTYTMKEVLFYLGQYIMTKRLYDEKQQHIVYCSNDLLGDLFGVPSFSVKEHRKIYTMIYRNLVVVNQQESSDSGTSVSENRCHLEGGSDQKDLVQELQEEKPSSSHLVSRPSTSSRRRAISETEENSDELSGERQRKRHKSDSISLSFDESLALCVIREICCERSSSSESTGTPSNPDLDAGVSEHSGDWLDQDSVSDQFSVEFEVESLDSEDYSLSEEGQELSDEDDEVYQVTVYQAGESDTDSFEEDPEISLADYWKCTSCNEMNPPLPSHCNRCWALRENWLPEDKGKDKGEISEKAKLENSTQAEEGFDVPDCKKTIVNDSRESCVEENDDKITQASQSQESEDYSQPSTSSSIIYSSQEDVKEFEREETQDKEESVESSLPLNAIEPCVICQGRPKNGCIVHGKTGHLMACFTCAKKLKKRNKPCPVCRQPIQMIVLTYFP
# PROTOCOL: HTRF assay of inhibition of the p53-MDM2 interaction (In Vitro Activity Assay)
Counter-ions that a name gives are not always drawn.
Convention used: pIC50 is expressed as -log10 of the molar concentration.

Here is how some molecules turned out for pIC50.
molecule="CCOc1cc(C(C)(C)C)ccc1C1=N[C@@H](c2ccc(Cl)cc2)[C@@H](c2ccc(Cl)cc2)N1C(=O)N1CCC(N2CCCC2)CC1 [Example 74, hydrochloride]" data_value=7.62
molecule="C#Cc1ccc([C@@H]2[C@H](c3ccc(C#C)cc3)N=C(c3ccc(C(C)(C)C)cc3OCC)N2C(=O)N2CCN(CCS(C)(=O)=O)CC2)cc1 [Example 35, hydrochloride]" data_value=7.96
molecule="CCOc1cc(C(C)(C)C)ccc1C1=N[C@@H](c2ccc(F)cc2)[C@@H](c2ccc(F)cc2)N1C(=O)N1CCNC(=O)C1 [Example 27, hydrochloride]" data_value=5.51

For the next question, use this molecule.
I'd like to know its pIC50. The molecule in question is CCOc1cc(C(C)(C)C)ccc1C1=N[C@@H](c2ccc(F)cc2)[C@@H](c2ccc(F)cc2)N1C(=O)N1CCN(CCS(C)(=O)=O)CC1 [Example 26, hydrochloride] 7.22
